- TARGET: T1, recombinant human CD4 (catalogue number: 514-CD/CF, manufactured by R&D Systems) (human, UniProt P01730 26-390)
- T1 construct: Bought protein (R&D Systems); also called recombinant CD4
- ASSAY TEXT: SPR, Biacore T100; antibody captured on anti-mouse IgG chip, recombinant human CD4 flowed; 1:1 binding model
MEASURE NAME: koff (s⁻¹)
The response must be a number in s⁻¹ with no trailing unit.

koff reading for anti-CD4 rat monoclonal antibody KM4069 (antibody, V domains shown, Rat hybridoma IgG with a kappa light chain) VH: QVQLKESGPGLVQPSQTLSLTCTVSGSSLTSNSVSWIRQPPGKGLEWMGVIWSNGDADYNSAIKSRLSISRDTSKSQVFLKMNSLQTEDTAMYFCASPYYGYYFPFDYWGQGVMVTVSS VL: DIQMTQSPASLSASLEEIVTITCKASQAIDAYLSWYQQKPGKSPQLLIYDATSLADGVPSRFSGSRSGTQYSLKISRPQVDDSGIYYCLQSYSTPFTFGSGTKLEIK : 0.000584
